Reference source for all entries: paper PMC4072508

assayed.system: Bcl-xL, Q07817
Sequence (Q07817 1-209): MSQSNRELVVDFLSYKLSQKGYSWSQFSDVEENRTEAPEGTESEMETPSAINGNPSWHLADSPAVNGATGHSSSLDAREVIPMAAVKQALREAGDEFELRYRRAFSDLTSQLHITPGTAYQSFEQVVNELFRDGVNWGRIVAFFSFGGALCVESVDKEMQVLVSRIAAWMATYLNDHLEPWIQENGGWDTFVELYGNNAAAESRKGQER
assay.method.text: peptide SPOT array, c-Myc-tagged receptor at 1 uM or 100 nM, anti-c-Myc-Cy3
quantity: SPOT signal as a fraction of Bim BH3's signal on the same receptor and array

Solved entries:
binder | measured.value
NESLTDTARVLSSMADAVLARVYKQS [OTC] | 0.03
FGTTLKNCRHLLECAKELDVQIIGVK [AZIN1] | 0.03
NKRHRPIGIGDQGLADAFILMRYPFE [RRM1] | 0.02
SHALICISHWDLGIGDRHLNNFMVAM [PRKDC] | 0.02
SMRRNAMGVGLVFELDLFTTRHISHW | 0.21
PDKRLTLSQIYQYVLDNFPFYNKSKA [FOXI1] | 0.76

A. FKAWGKFGGAFCRYADEMKEIQERQR [PURB]
B. SMRRNAMGVGLVFEADLFTTRHISHW
Would you let me know which has the greater SPOT signal as a fraction of Bim BH3's signal on the same receptor and array value, A or B ? Please reply using the label of the selected record.
A
